Field: Ki. System: Sodium-dependent noradrenaline transporter (Homo sapiens, UniProt P23975). Provenance: assorted publications.

Prompt: Which measured Ki belongs to CC[C@H](Oc1cc(F)c(OC)c(F)c1)[C@H]1CCNC1 , tested on Sodium-dependent noradrenaline transporter (Homo sapiens, UniProt P23975)?
Completion: ≤ 10 nM

Prompt: Item: Fc1ccc(-c2cccc(Cl)c2)c(CO[C@H]2CCNC2)c1 Test system: Sodium-dependent noradrenaline transporter (Homo sapiens, UniProt P23975) Read-out: Ki Value: ?
Completion: 103 nM

Prompt: Param readout= Ki; system= Sodium-dependent noradrenaline transporter (Homo sapiens, UniProt P23975); entry= CCOc1ccc(-n2nc3c(N(CCO)Cc4ccccn4)nnc(C)c3c2C)c(F)c1 ; returns value.
Completion: 500 to 1000 nM

Prompt: What value of Ki on Sodium-dependent noradrenaline transporter (Homo sapiens, UniProt P23975) does CC[C@@H](Oc1c(Cl)ccc(Cl)c1Cl)[C@H]1CCNC1 have?
Completion: ≤ 10 nM

Prompt: // lookup Ki | system=Sodium-dependent noradrenaline transporter (Homo sapiens, UniProt P23975) | key= Cc1nnc(N(C)C)c2nn(-c3cccc(OC(CN(C)C)c4ccccc4)c3)c(C)c12 (centres unmarked)
Completion: 100 to 500 nM
